Molecular target: Aurora kinase B (Homo sapiens)
Sequence (Q96GD4 whole entry): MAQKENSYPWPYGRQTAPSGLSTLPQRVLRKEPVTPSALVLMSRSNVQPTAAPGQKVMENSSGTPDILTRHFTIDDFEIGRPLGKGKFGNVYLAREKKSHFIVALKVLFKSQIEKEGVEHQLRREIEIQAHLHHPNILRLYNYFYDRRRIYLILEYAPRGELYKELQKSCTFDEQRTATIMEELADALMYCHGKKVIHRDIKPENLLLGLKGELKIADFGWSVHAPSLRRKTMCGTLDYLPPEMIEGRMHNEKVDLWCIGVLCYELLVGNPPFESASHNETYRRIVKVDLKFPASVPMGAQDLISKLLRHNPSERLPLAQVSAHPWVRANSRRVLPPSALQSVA
Assay: Inhibition of Aurora kinase B-mediated histone H3 Ser10 phosphorylation in human HCT116 cells after 2 hrs by sandwich ELISA
recorded metric: pIC50
Bear in mind: pIC50 is minus log10 of a mol/L concentration; give just that figure.

Exercise: I have this molecule here, Cc1cc(Nc2nc(Sc3ccc(NC(=O)CN4CC[C@@H](SC(C)(C)C)C4)cc3)nn3cccc23)n[nH]1 , and I need its recorded pIC50.
Solution: 7.02

Exercise: Now consider Cc1cc(Nc2nc(Sc3ccc(NC(=O)CN4CC[C@@H](S(=O)(=O)C(C)(C)C)C4)cc3)nn3cccc23)n[nH]1 .
Solution: 7.54

Exercise: Now consider Cc1cc(Nc2nc(Sc3ccc(NC(=O)CN4CC[C@@H](NC(=O)C(C)C)C4)cc3)nn3cccc23)n[nH]1 .
Solution: 6.94

Exercise: Now consider Cc1cc(Nc2nc(Sc3ccc(NC(=O)CN4CC[C@@H](NS(C)(=O)=O)C4)cc3)nn3cccc23)n[nH]1 .
Solution: 6.44

---

Assay: Clearance in athymic Nu/Nu rat at 15 mg/kg, iv administered using TPPW as vehicle
Format: ADME, organism-based
Parameters: dose 15 mg/kg, route intravenous
Conditions: in vivo
recorded metric: clearance (mL/min/kg)
Quick reminder: number only, in mL/min/kg, skip the unit.

Exercise: I have this compound here, Cc1cc(Nc2nc(Sc3ccc(NC(=O)CN4CC[C@@H](C(=O)N5CCC(F)(F)C5)C4)cc3)nn3cccc23)n[nH]1 , and I need its recorded clearance.
Solution: 12.5

---

Assay: Volume of distribution in Nu/Nu rat at 10 mg/kg, iv administered using TPPW as vehicle
Assay type: ADME, organism-based
Parameters: dose 10 mg/kg, route intravenous
Details: in vivo
recorded metric: Vd
Form field: result (number plus unit)

Exercise: I have this molecule here, Cc1cc(Nc2nc(Sc3ccc(NC(=O)CN4CC[C@@H](C(=O)NC5CCCC5)C4)cc3)nn3cccc23)n[nH]1 , and I need its recorded Vd.
Solution: 1.1 L/kg

---

System: HCT-116
Test: Antiproliferative activity against human HCT116 cells after 72 hrs by BrdU-based ELISA
Format: functional, cell-based
Details: HCT-116, 72 h
For each record, write down the corresponding IC50.
Quick reminder: number only, in nM, skip the unit.

Exercise: I have this molecule here, Cc1cc(Nc2nc(Sc3ccc(NC(=O)CN4CCC(C(=O)N5CCCC5)C4)cc3)nn3cccc23)n[nH]1 (racemic) , and I need its recorded IC50.
Solution: 2.9

Exercise: Now consider Cc1cc(Nc2nc(Sc3ccc(NC(=O)CN4CC[C@@H](C(=O)NCC(F)(F)F)C4)cc3)nn3cccc23)n[nH]1 .
Solution: 0.9

Exercise: Now consider Cc1cc(Nc2nc(Sc3ccc(NC(=O)CN4CC[C@@H](OC(C)(C)C)C4)cc3)nn3cccc23)n[nH]1 .
Solution: 2.6

Exercise: Now consider Cc1cc(Nc2nc(Sc3ccc(NC(=O)CN4CC[C@@H](C(=O)N5CCCC5)C4)cc3)nn3cccc23)n[nH]1 .
Solution: 2.2

Exercise: Now consider Cc1cc(Nc2nc(Sc3ccc(NC(=O)CN4CC[C@@H](NS(C)(=O)=O)C4)cc3)nn3cccc23)n[nH]1 .
Solution: 270

Exercise: Now consider Cc1cc(Nc2nc(Sc3ccc(NC(=O)CN4CC[C@@H](SC(C)(C)C)C4)cc3)nn3cccc23)n[nH]1 .
Solution: 19.3

Exercise: Now consider Cc1cc(Nc2nc(Sc3ccc(NC(=O)CN4CC[C@@H](C(=O)N5CCOCC5)C4)cc3)nn3cccc23)n[nH]1 .
Solution: 3.9

Exercise: Now consider Cc1cc(Nc2nc(Sc3ccc(NC(=O)CN4CC[C@@H](NC(=O)C(C)C)C4)cc3)nn3cccc23)n[nH]1 .
Solution: 46.5
